The reported numbers originate from patent US20180319766A1.

# protocol summary: Stability of the cocrystal under forced conditions of humidity and temperature (ICH), XRPD
# Type: physicochemical
# measurement parameters: 70±5% RH, 40° C.
endpoint: Time the crystalline form is stable under forced conditions (XRPD)

smiles representation: CCOCCn1c(C2CCN(CCc3ccc(C(C)(C)C(=O)O)cc3)CC2)nc2ccccc21.O=C(O)CCCCC(=O)O
value: at least 1 weeks
--
smiles representation: CCOCCn1c(C2CCN(CCc3ccc(C(C)(C)C(=O)O)cc3)CC2)nc2ccccc21.CCOCCn1c(C2CCN(CCc3ccc(C(C)(C)C(=O)O)cc3)CC2)nc2ccccc21.O=C(O)CCCCC(=O)O
value: at least 1 weeks
--
smiles representation: CCOCCn1c(C2CCN(CCc3ccc(C(C)(C)C(=O)O)cc3)CC2)nc2ccccc21.O=C(O)CCCC(=O)O
value: at least 4 weeks
--
smiles representation: CCOCCn1c(C2CCN(CCc3ccc(C(C)(C)C(=O)O)cc3)CC2)nc2ccccc21.CCOCCn1c(C2CCN(CCc3ccc(C(C)(C)C(=O)O)cc3)CC2)nc2ccccc21.O=C(O)CCCC(=O)O
value: at least 4 weeks
